Target: Alpha-1B adrenergic receptor (Homo sapiens)
Sequence (P35368 whole entry): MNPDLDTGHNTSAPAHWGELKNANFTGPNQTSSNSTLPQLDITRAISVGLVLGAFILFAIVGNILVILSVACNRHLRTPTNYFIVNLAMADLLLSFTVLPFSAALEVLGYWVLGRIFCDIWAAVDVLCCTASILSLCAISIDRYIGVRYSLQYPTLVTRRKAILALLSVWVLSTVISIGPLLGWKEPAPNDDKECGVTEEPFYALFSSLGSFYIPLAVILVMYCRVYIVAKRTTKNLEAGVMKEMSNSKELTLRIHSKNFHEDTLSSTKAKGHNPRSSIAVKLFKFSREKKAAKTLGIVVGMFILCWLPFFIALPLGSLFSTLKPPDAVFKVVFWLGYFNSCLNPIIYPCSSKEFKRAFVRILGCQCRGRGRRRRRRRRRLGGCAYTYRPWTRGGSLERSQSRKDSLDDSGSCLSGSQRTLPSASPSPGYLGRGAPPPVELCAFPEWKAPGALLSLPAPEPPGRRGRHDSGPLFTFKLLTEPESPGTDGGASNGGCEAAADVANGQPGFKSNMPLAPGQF
reported metric: Ki

GET /values?readout=Ki&item= NC(=O)c1cccc(-c2cccc(OC(=O)NC3CCCCC3)c2)c1 > 10 µM

----------
biological target: UniProt P35348
reported metric: Ki

Recorded Ki for NC(=O)c1cccc(-c2cccc(OC(=O)NC3CCCCC3)c2)c1 , please? > 10 µM

----------
target: Histamine H1 receptor (Homo sapiens, UniProt P35367)
reported metric: Ki

Find the measured Ki: item NC(=O)c1cccc(-c2cccc(OC(=O)NC3CCCCC3)c2)c1 , target or system Histamine H1 receptor (Homo sapiens, UniProt P35367). > 10 µM

----------
target: Cannabinoid receptor 1 (Rattus norvegicus, UniProt P20272)
Sequence (P20272 whole entry): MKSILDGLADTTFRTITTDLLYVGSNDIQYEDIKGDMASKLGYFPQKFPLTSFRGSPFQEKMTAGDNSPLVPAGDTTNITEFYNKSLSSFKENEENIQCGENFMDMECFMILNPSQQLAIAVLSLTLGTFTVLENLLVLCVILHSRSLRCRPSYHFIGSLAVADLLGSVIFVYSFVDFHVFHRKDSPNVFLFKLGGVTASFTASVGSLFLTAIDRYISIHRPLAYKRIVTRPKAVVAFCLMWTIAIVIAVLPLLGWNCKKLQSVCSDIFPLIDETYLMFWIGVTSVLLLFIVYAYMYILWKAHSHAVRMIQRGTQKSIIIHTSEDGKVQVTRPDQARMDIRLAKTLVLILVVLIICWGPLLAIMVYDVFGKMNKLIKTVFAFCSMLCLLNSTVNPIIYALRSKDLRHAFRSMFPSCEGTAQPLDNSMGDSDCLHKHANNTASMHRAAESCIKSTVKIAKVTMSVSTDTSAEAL
pKi: −log10 of the molar value.
reported metric: pKi

Could you share what pKi was measured for NC(=O)c1cccc(-c2cccc(OC(=O)NC3CCCCC3)c2)c1 [URB 597] , tested on Cannabinoid receptor 1 (Rattus norvegicus, UniProt P20272)? < 5.00

----------
molecular target: Sodium-dependent noradrenaline transporter (Homo sapiens)
pKi: −log10 of the molar value.
reported metric: pKi

If you can, please state the reported pKi value of NC(=O)c1cccc(-c2cccc(OC(=O)NC3CCCCC3)c2)c1 [URB 597] . < 5.00

----------
target: 5-hydroxytryptamine receptor 1E (Homo sapiens)
Sequence (P28566 whole entry): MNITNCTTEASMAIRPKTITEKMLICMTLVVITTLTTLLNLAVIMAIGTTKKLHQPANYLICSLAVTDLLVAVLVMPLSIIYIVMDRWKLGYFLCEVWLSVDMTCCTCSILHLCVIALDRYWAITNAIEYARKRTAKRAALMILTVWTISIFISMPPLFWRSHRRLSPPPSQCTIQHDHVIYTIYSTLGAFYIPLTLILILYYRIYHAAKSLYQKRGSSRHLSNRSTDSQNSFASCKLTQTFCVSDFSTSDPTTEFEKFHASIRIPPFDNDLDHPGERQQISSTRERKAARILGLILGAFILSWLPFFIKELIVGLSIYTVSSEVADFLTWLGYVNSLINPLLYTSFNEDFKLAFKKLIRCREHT
pKi: −log10 of the molar value.
reported metric: pKi

# lookup: pKi of NC(=O)c1cccc(-c2cccc(OC(=O)NC3CCCCC3)c2)c1 < 5.00

----------
target: Alpha-2C adrenergic receptor (Homo sapiens)
pKi: −log10 of the molar value.
reported metric: pKi

Request: pKi, test system Alpha-2C adrenergic receptor (Homo sapiens), entry NC(=O)c1cccc(-c2cccc(OC(=O)NC3CCCCC3)c2)c1 < 5.00

----------
biological target: Neuronal acetylcholine receptor subunit alpha-4 (Homo sapiens, UniProt P43681)
Sequence (P43681 whole entry): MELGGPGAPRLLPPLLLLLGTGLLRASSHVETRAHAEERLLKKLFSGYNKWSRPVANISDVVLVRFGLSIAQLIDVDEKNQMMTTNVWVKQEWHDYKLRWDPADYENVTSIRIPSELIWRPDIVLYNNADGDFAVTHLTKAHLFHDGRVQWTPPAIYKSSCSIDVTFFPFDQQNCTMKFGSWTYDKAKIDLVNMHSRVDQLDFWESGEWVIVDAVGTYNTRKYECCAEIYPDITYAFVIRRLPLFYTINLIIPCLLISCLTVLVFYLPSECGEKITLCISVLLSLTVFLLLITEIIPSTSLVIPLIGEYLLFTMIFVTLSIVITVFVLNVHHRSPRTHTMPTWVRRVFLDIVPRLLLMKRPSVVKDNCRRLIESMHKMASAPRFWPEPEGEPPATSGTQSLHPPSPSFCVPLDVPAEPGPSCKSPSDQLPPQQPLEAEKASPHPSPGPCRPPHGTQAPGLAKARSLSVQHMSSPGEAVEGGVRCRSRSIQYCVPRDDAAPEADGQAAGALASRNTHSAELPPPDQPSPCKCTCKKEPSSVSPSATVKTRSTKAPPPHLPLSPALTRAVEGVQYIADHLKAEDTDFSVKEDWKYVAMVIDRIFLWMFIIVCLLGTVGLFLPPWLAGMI
reported metric: Ki

So what Ki did NC(=O)c1cccc(-c2cccc(OC(=O)NC3CCCCC3)c2)c1 get with Neuronal acetylcholine receptor subunit alpha-4 (Homo sapiens, UniProt P43681)? > 10 µM

----------
Molecular target: UniProt:P08172
Sequence (P08172 whole entry): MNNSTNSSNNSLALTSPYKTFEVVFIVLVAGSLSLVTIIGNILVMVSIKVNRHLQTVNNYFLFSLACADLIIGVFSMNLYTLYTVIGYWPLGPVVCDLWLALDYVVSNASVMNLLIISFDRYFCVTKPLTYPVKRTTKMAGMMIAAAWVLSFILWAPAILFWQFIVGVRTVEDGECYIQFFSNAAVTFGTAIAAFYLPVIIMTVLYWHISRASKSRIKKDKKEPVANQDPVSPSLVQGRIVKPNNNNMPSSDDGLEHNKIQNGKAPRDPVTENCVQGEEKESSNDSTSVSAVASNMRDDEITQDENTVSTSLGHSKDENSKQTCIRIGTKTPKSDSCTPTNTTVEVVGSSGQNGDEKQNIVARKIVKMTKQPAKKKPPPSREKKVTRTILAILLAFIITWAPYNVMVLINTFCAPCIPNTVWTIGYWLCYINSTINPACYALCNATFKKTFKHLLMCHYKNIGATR
reported metric: Ki

Query: Ki; subject: NC(=O)c1cccc(-c2cccc(OC(=O)NC3CCCCC3)c2)c1 [URB 597] > 10 µM

----------
target: D(1A) dopamine receptor (Homo sapiens, UniProt P21728)
Sequence (P21728 whole entry): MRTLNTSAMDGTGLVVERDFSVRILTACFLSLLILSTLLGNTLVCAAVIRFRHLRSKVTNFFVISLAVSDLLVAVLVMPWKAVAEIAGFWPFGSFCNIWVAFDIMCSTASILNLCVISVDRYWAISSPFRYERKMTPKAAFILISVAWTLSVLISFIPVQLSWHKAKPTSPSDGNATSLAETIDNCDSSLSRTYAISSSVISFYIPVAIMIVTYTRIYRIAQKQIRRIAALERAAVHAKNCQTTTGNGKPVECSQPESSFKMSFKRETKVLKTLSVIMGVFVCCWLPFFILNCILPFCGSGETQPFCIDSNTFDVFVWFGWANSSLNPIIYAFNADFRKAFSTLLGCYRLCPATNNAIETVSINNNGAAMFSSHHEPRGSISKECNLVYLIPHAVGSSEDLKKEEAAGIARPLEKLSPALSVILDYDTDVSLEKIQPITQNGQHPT
pKi: −log10 of the molar value.
reported metric: pKi

Hello, I am looking for reported pKi with D(1A) dopamine receptor (Homo sapiens, UniProt P21728) for NC(=O)c1cccc(-c2cccc(OC(=O)NC3CCCCC3)c2)c1 . Could you help? < 5.00

----------
target: 5-hydroxytryptamine receptor 1D (Homo sapiens)
Sequence (P28221 whole entry): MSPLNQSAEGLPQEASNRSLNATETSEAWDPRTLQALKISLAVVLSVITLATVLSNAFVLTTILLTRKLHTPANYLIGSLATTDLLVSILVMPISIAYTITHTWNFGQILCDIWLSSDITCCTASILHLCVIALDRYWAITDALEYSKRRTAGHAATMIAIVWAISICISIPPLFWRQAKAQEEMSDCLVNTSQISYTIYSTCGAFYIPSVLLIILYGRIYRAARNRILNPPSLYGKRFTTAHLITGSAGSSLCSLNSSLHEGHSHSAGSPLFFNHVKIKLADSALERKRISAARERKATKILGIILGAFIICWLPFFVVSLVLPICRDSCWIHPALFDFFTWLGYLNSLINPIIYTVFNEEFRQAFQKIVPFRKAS
pKi: −log10 of the molar value.
reported metric: pKi

Query pKi on 5-hydroxytryptamine receptor 1D (Homo sapiens) for NC(=O)c1cccc(-c2cccc(OC(=O)NC3CCCCC3)c2)c1 < 5.00

----------
target: ATP-dependent translocase ABCB1 (Homo sapiens, UniProt P08183)
reported metric: Ki

Tell me the measured Ki of NC(=O)c1cccc(-c2cccc(OC(=O)NC3CCCCC3)c2)c1 , please. > 10 µM

----------
molecular target: 5-hydroxytryptamine receptor 2A (Homo sapiens)
Sequence (P28223 whole entry): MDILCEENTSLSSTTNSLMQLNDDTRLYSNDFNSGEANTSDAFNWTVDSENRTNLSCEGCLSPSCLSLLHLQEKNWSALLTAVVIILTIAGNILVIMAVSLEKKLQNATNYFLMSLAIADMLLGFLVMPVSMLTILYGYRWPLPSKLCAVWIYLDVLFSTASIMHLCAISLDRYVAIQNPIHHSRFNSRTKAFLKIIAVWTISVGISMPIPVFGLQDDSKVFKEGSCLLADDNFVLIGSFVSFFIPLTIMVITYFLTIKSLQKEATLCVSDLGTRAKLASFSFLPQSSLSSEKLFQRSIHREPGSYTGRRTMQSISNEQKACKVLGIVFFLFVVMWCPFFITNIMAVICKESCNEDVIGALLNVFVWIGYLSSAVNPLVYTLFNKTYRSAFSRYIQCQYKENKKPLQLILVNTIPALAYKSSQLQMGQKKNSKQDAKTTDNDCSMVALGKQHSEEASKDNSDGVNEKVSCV
pKi: −log10 of the molar value.
reported metric: pKi

What measured pKi is associated with NC(=O)c1cccc(-c2cccc(OC(=O)NC3CCCCC3)c2)c1 on 5-hydroxytryptamine receptor 2A (Homo sapiens)? < 5.00

----------
target: UniProtKB P41145
Sequence (P41145 whole entry): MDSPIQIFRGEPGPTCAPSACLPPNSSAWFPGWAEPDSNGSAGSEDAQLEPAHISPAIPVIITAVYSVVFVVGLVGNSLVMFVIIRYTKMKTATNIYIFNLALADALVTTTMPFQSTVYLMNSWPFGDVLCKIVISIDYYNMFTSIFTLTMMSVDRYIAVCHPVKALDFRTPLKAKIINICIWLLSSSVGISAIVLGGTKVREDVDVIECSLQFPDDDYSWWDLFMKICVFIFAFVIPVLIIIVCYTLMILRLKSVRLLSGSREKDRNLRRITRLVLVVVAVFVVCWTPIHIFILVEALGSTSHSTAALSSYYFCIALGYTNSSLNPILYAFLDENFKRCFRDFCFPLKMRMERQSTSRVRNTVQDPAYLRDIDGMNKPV
pKi: −log10 of the molar value.
reported metric: pKi

Entry NC(=O)c1cccc(-c2cccc(OC(=O)NC3CCCCC3)c2)c1 [URB 597] has what pKi? < 5.00

----------
molecular target: Alpha-2A adrenergic receptor (Homo sapiens, UniProt P08913)
Sequence (P08913 whole entry): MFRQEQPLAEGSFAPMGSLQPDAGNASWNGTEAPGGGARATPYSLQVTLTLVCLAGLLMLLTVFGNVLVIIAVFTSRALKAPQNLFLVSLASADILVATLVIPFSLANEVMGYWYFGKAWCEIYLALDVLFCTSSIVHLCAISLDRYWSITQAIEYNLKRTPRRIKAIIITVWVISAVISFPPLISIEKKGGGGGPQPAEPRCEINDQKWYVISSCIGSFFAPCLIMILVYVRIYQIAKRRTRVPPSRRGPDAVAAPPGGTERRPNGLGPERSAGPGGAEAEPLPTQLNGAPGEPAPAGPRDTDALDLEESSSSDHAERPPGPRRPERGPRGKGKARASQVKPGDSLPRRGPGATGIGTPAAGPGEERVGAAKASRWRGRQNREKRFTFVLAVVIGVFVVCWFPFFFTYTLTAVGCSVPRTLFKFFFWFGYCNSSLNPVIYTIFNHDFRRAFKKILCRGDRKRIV
pKi: −log10 of the molar value.
reported metric: pKi

May I ask what pKi has been recorded for NC(=O)c1cccc(-c2cccc(OC(=O)NC3CCCCC3)c2)c1 ? < 5.00

----------
molecular target: Muscarinic acetylcholine receptor M1 (Homo sapiens)
reported metric: Ki

Reported Ki for Muscarinic acetylcholine receptor M1 (Homo sapiens), given NC(=O)c1cccc(-c2cccc(OC(=O)NC3CCCCC3)c2)c1 ? > 10 µM

----------
target: Sigma non-opioid intracellular receptor 1 (Rattus norvegicus, UniProt Q9R0C9)
Sequence (Q9R0C9 whole entry): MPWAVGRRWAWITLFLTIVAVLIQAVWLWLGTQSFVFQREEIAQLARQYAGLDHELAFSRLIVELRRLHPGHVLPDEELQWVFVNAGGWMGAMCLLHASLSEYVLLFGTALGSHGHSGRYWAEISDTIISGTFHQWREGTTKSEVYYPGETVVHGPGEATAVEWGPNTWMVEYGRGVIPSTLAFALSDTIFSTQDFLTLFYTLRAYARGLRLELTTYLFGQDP
reported metric: Ki

Recorded Ki for NC(=O)c1cccc(-c2cccc(OC(=O)NC3CCCCC3)c2)c1 , please? > 10 µM

----------
target: Beta-1 adrenergic receptor (Rattus norvegicus, UniProt P18090)
Sequence (P18090 whole entry): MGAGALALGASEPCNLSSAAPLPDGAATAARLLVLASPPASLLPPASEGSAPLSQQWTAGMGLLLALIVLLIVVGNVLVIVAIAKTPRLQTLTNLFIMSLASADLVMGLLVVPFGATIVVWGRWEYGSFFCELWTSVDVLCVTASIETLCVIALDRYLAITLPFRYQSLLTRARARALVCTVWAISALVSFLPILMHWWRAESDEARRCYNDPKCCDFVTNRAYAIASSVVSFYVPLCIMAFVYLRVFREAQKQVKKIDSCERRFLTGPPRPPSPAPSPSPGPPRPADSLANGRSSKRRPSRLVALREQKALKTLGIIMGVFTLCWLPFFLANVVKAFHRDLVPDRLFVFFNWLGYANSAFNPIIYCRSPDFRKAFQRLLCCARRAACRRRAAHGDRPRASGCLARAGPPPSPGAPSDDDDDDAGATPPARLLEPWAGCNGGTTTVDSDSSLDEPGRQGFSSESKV
pKi: −log10 of the molar value.
reported metric: pKi

Need pKi of NC(=O)c1cccc(-c2cccc(OC(=O)NC3CCCCC3)c2)c1 [URB 597] , thanks. < 5.00

----------
target: Muscarinic acetylcholine receptor M3 (Homo sapiens)
Sequence (P20309 whole entry): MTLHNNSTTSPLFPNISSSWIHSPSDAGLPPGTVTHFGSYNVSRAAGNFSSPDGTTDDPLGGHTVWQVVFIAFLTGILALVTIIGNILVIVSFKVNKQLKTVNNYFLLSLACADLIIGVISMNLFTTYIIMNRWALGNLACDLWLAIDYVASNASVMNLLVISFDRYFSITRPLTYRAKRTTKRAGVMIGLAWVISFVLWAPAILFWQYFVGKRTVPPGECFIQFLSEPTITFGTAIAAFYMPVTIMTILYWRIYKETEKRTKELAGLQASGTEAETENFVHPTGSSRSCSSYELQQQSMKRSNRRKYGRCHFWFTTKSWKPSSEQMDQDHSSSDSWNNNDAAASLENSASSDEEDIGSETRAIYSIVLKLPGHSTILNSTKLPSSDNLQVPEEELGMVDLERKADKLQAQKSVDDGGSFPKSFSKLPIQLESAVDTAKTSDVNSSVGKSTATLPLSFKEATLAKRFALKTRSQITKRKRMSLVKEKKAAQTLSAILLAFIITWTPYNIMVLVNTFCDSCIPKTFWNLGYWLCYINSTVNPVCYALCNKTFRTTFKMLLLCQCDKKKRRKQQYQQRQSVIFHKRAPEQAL
reported metric: Ki

Param readout = Ki; param system = Muscarinic acetylcholine receptor M3 (Homo sapiens); param query = NC(=O)c1cccc(-c2cccc(OC(=O)NC3CCCCC3)c2)c1 [URB 597] ; response: value > 10 µM
